Each item that follows carries a reported pEC50.
Target: human activated kallikrein enzyme (Homo sapiens, UniProt P03952)
Sequence (P03952 391-638 limits assumed): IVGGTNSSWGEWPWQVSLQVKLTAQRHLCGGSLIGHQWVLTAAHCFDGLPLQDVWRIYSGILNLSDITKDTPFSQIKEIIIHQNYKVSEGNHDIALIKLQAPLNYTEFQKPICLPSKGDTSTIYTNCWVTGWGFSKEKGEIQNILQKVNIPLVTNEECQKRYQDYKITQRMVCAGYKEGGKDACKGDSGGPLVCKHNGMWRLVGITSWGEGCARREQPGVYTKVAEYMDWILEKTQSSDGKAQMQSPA
Sequence (P03952 20-390 partner limits assumed): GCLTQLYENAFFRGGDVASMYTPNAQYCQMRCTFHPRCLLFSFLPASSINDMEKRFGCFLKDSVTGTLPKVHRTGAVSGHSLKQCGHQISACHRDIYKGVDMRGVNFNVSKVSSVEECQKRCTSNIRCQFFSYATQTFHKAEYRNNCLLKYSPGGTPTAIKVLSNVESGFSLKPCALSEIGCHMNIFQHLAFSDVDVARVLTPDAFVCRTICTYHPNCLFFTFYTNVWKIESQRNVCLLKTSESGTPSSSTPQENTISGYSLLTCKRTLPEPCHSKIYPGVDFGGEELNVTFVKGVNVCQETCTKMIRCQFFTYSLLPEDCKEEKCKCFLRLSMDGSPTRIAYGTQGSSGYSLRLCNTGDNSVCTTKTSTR
Assay: Inhibition of activated plasma kallikrein, fluorogenic peptide substrate (PFR-AMC) assay, 500 pM enzyme format
Type: biochemical
Details: 500 pM activated kallikrein, 300 uM PFR-AMC, 30 min preincubation, 10 min reaction, room temperature; read-out: Primary Dose Response Assay: Average EC50
pEC50: −log10 of the molar value.
Recorded metric: pEC50

1. Cc1ccnc(C2CC2c2cc(=O)c3ccc(NCc4cn5cc(C6CC6)cc(N6CC(=O)N(C)C6=O)c5n4)cc3[nH]2)n1 (single isomer, unassigned) [Example 13] ... 8.00 to 9.00
2. Cc1ccnc([C@H]2C[C@@H]2c2cc(C#N)c3ccc(NCc4cn5cc(C6CC6)cc(N6CC(=O)N(C)C6=O)c5n4)cc3n2)n1 (racemic) ... 7.00 to 8.00
3. Cc1ccnc([C@H]2C[C@@H]2c2ccc3ncc(NCc4cn5cc(C6CC6)cc(N6CC(=O)N(C)C6=O)c5n4)cc3c2)n1 (racemic) ... 5.19 to 7.00
4. COc1cc(NCc2cn3cc(C)cc(N4CC(=O)N(C)C4=O)c3n2)cc2nc([C@H]3C[C@@H]3c3nccc(C)n3)ccc12 (racemic) ... 8.00 to 9.00
5. Cc1ccnc([C@H]2C[C@@H]2c2ccc3ccc(N4C[C@@H](O)C[C@@H]4c4cn5cc(C6CC6)cc(N6CC(=O)N(C)C6=O)c5n4)cc3n2)n1 (relative stereo) ... 8.00 to 9.00
6. Cc1ccnc([C@H]2C[C@@H]2c2ccc3ccc(NCc4cn5cc(C6CC6)nc(N6CC(=O)N(C)C6=O)c5n4)cc3n2)n1 (racemic) ... 8.00 to 9.00
7. Cc1ccnc([C@H]2C[C@@H]2C2=NS(=O)(=O)c3ccc(NCc4cn5cc(C6CC6)ccc5n4)cc3N2)n1 (racemic) [Example 64] ... ≥ 9.00
8. Cc1ccnc([C@@H]2C[C@H]2c2ccc3ccc(NCc4cn5cc(C6CC6)cc(N6CC(=O)N(C)C6=O)c5n4)cc3n2)n1 (single isomer, unassigned) ... 7.00 to 8.00
9. Clc1cccc([C@H]2C[C@@H]2c2nc3ccc(NCc4cn5cc(C6CC6)ccc5n4)cc3[nH]2)c1 ... < 5.19
10. Cc1ccnc([C@H]2C[C@@H]2c2cc(N3CCC3)c3ccc(NCc4cn5cc(C6CC6)cc(N6CC(=O)N(C)C6=O)c5n4)cc3n2)n1 ... ≥ 9.00
11. Cc1ccnc([C@H]2C[C@@H]2c2ccc3ccc(NCc4cn5cc(C6CC6)ccc5n4)cc3n2)n1 (racemic) ... 8.00 to 9.00
12. COCc1cc(NCc2cn3cc(C4CC4)cc(N4CC(=O)N(C)C4=O)c3n2)cc2nc([C@H]3C[C@@H]3c3nccc(C)n3)ccc12 (racemic) ... ≥ 9.00
